test: Intrinsic clearance in human liver microsomes assessed per mg of protein incubated for 10 mins followed by potassium phosphate buffer addition and measured after 5 to 60 mins by LC-MS/MS analysis; type: ADME, Microsome; conditions: read-out: CLH
parameter: microsomal CLint (µL/min/mg)
Give the value in µL/min/mg but do not write µL/min/mg after it.

Task: Consider the compound shown here: CC(O)(C#Cc1ccc2c(c1)N(c1nc(N)ncc1Cl)CC2)c1nccs1 (configuration not stated) What is its recorded microsomal CLint?
Result: 40.8

Task: I am curious: what microsomal CLint value has been reported for CC(O)(C#Cc1ccc(N2CCOCC2)c(Nc2ncnc3[nH]ccc23)c1)c1nccs1 (racemic) ?
Result: 32.4
